Tested on: T47D
Assay: NCI tumour cell line growth inhibition, 48 h
Active and inactive are the calls of the source. Rule as the data show it: active = GI50 up to about 1.1 µM and inactive = higher.
READOUT: GI50

Worked examples, 5 compounds total:
COMPOUND	ENDPOINT_VALUE
CCC(NC(C)c1ccccc1)C(=O)c1ccc(OCc2ccccc2)c(OCc2ccccc2)c1 (stereo unspecified)	> 100 µM (inactive)
C/C=C/[C@@H]1O[C@H](CC#C[Si](C)(C)C)[C@@]2(C=O)C(C)=CC[C@H](C(C)C)[C@@H]12	30.8 µM (inactive)
COc1ccc(C2SC(=N)Nc3c2c(C)nn3C(=O)c2ccccc2O)cc1OC (stereo unspecified)	3.18 µM (inactive)
CC(=O)OCCOCn1cc(C=O)c2ccccc21	> 100 µM (inactive)
O=c1c2cc([N+](=O)[O-])ccc2oc2nc3n(c(=O)c12)CCCS3	> 100 µM (inactive)

Would you mind listing GI50 for each of the following compounds?
1. COc1ccc(-c2cc(=O)c3c(O)c(OC)c(OC)c(OC)c3o2)cc1
2. N=C(N)NC(=N)Nc1ccc(S(=O)(=O)O)cc1

Solution:
["26.9 µM (inactive)", "> 100 µM (inactive)"]

Would you mind listing GI50 for each of the following compounds?
1. C[N+](C)(C)CC1CCCc2ccccc2C1=O (stereo unspecified)
2. N=C(N)NCCNC(=N)N
3. O=C(O)c1ccc(/C=N/N=C2c3ccccc3-c3ccccc32)cc1

Solution:
1.73 µM (inactive)
84.3 µM (inactive)
64 µM (inactive)

Short answer for COc1ccc2nc3c(C)cc4ccccc4n3c2c1 : GI50 was > 100 µM (inactive)
